Multiple publications report IC50 for dN-SARM1 protein (Homo sapiens, UniProt Q6SZW1); what follows is a combined list.

Prompt: I'd like to know its IC50. The compound in question is [2H]C([2H])([2H])C([2H])(c1ccncc1)c1ccn(CC(F)(F)F)n1 (racemic)
Response: < 1000 nM

Prompt: I'd like to know its IC50. The compound in question is O=C(CCc1ccc(Cl)cc1)Nc1cc(-c2ccncc2F)n[nH]1
Response: < 1000 nM

Prompt: I'd like to know its IC50. The compound in question is O=C(NCc1ccc(Cl)cc1)Nc1[nH]nc(-c2ccncc2)c1Cl
Response: < 1000 nM

Prompt: I'd like to know its IC50. The compound in question is Cc1c(-c2ccncc2)n[nH]c1NC(=O)CCc1ccc(F)c(F)c1F
Response: < 1000 nM

Prompt: I'd like to know its IC50. The compound in question is Cc1cnccc1C(C)n1ccc(NCC(F)(F)F)n1 (racemic)
Response: 1000 to 10000 nM

Prompt: I'd like to know its IC50. The compound in question is CC(C)c1ccc(-n2c(=O)sn(-c3ccc(SC(F)(F)F)cc3)c2=O)cc1
Response: 1000 to 10000 nM

Prompt: I'd like to know its IC50. The compound in question is Cc1c(-c2ccncc2)n[nH]c1N1C(=O)CC(c2ccc(Cl)cc2)CC1=O (racemic)
Response: 1000 to 10000 nM

Prompt: I'd like to know its IC50. The compound in question is CC(c1ccncc1)c1nn(CC(F)(F)F)cc1F (racemic)
Response: 1000 to 10000 nM

Prompt: I'd like to know its IC50. The compound in question is O=C(CCc1cc(F)c(Cl)c(F)c1)Nc1[nH]nc(-c2ccncc2)c1Cl
Response: < 1000 nM

Prompt: I'd like to know its IC50. The compound in question is Cc1c(-c2ccncc2)n[nH]c1NC(=O)CCc1ccc(Cl)c(F)c1F
Response: < 1000 nM

Prompt: I'd like to know its IC50. The compound in question is Cc1nn(-c2ccncc2)cc1NC(=O)CCc1ccc(Cl)cc1
Response: 1000 to 10000 nM

Prompt: I'd like to know its IC50. The compound in question is Cc1c(-c2ccncc2)n[nH]c1NC(=O)CCc1cc(F)c(F)cc1F
Response: < 1000 nM

Prompt: I'd like to know its IC50. The compound in question is O=C(CCCCCCNC(=O)c1cnc(N(c2ccccc2)c2ccccc2)nc1)NO
Response: > 10000 nM

Prompt: I'd like to know its IC50. The compound in question is N#Cc1ccc(CCC(=O)Nc2[nH]nc(-c3ccncc3)c2Cl)cc1F
Response: < 1000 nM

Prompt: I'd like to know its IC50. The compound in question is Cc1c(-c2ccncc2)n[nH]c1NC(=O)C(F)(F)Cc1ccc(Cl)cc1
Response: 1000 to 10000 nM

Prompt: I'd like to know its IC50. The compound in question is Cc1c(-c2ccncc2)n[nH]c1NC(=O)CCc1cnc(F)nc1
Response: < 1000 nM

Prompt: I'd like to know its IC50. The compound in question is Cc1c(-c2ccncc2)n[nH]c1NC(=O)CCc1ccc(I)cc1
Response: < 1000 nM

Prompt: I'd like to know its IC50. The compound in question is Cc1c(-c2ccncc2)n[nH]c1NC(=O)CC1CCCc2ccccc21 (stereo not shown)
Response: 1000 to 10000 nM

Prompt: I'd like to know its IC50. The compound in question is Cc1cc(Cl)ccc1CCC(=O)Nc1[nH]nc(-c2ccncc2)c1C
Response: < 1000 nM

Prompt: I'd like to know its IC50. The compound in question is Cc1c(-c2ccncc2)n[nH]c1NC(=O)N[C@H](C)c1ccc(Cl)cc1
Response: 1000 to 10000 nM

Prompt: I'd like to know its IC50. The compound in question is CC(C)Cn1ccc(C(C)c2ccncc2)n1 (racemic)
Response: 1000 to 10000 nM

Prompt: I'd like to know its IC50. The compound in question is CC(=O)N(C(=O)CCc1ccc(Cl)cc1)c1[nH]nc(-c2ccncc2)c1C
Response: < 1000 nM

Prompt: I'd like to know its IC50. The compound in question is S=C(NCc1ccc(Cl)cc1)Nc1cnn(-c2ccncc2)c1
Response: 1000 to 10000 nM

Prompt: I'd like to know its IC50. The compound in question is Cc1c(-c2ccncc2)n[nH]c1NC(=O)CCc1ccc(OC(F)F)cc1
Response: < 1000 nM

Prompt: I'd like to know its IC50. The compound in question is O=C(CCc1ccc(Cl)cc1)Nc1[nH]nc(-c2ccncc2)c1Br
Response: < 1000 nM
